tested on: Caco-2; assay: cell viability relative to DMSO; higher = less toxic; conditions: 72 h; 1 nM
Could you mark each record label 1 if its cell viability falls strictly under 90%, and label 0 if it equals or exceeds it?

Query block: # strict comparison: is reported cell viability < 90%? input = Cc1cc(I)ccc1Nc1c(C(=O)NOCC2CC2)cc(F)c(F)c1F
Result block: label 0

***
Query block: Is 90% strictly greater than the molecule's reported cell viability? molecule: O[C@H]1[C@H]2[C@H](O)CCCN2C[C@H]1O [swainsonine]
Result block: label 1

Query block: Lab note: cell viability threshold 90%. Does this molecule come in strictly under it? C[C@@H]1O[C@@H](OC[C@H]2O[C@@H](Oc3c(-c4ccc(O)c(O)c4)oc4cc(O)cc(O)c4c3=O)[C@H](O)[C@@H](O)[C@@H]2O)[C@H](O)[C@H](O)[C@H]1O [rutin]
Result block: label 0

Query block: Here's an entry: CC(=O)NCCCCCC(=O)O [acexamic-acid] . Is its cell viability below 90%?
Result block: label 0

Query block: Say whether its cell viability is strictly beneath 90%. Entry: NCCCC[C@H](NC(=O)[C@@H]1CCCN1C(=O)[C@@H]1CSSC[C@H](NC(=O)CNC(=O)CNC(=O)CN)C(=O)N[C@@H](Cc2ccc(O)cc2)C(=O)N[C@@H](Cc2ccccc2)C(=O)N[C@@H](CCC(N)=O)C(=O)N[C@@H](CC(N)=O)C(=O)N1)C(=O)NCC(N)=O [terlipressin]
Result block: label 0

Query block: Strictly below 90%: is that where cell viability of CC1=C(C(=O)Nc2cc3cn[nH]c3cc2F)C(c2ccc(C(F)(F)F)cc2)CC(=O)N1 (centres undefined) sits?
Result block: label 1

Query block: Could you please tell me whether cell viability recorded for O=C(C1CCCCC1)N1CC(=O)N2CCc3ccccc3C2C1 (centres undefined) [praziquantel] is less than 90%?
Result block: label 0
